# EXPERIMENTAL SYSTEM: T1, human ROR1-Fz (Homo sapiens, UniProt Q01973)
# T1 construct: Frizzled (Fz, residues 165-305); His6 (C); purchased Acro Biosystems; host or cells: HEK293
# T1 sequence (Q01973 165-305): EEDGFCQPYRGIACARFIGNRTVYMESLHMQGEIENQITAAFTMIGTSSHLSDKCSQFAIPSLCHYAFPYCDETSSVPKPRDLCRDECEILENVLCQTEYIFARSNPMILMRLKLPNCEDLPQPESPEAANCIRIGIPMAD
# ASSAY INFO: Biacore off-rate and kinetic analysis, ROR1-Fz
# Type: binding
# RUN CONDITIONS: Table 11; SP34 light chain

MOLECULE	Biacore human ROR1-Fz kd, s⁻¹
SRP2196-A05 (antibody, V domains shown) VH: EVQLVESGGGLVQPGGSLRLSCAASGFNITNYYIHWVRQAPGKGLEWVGYISPNSGATYQADSVKGRFTISADTSKNTAYLQMNSLRAEDTAVYYCARDSRRYVRSWDYWGQGTLVTVSS VL: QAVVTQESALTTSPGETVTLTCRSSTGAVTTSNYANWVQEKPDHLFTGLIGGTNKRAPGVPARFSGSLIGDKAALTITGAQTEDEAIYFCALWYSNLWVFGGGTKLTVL	0.000682
SRP2196-C03 (antibody, V domains shown) VH: EVQLVESGGGLVQPGGSLRLSCAASGFNITGYYIHWVRQAPGKGLEWVGQISPNSGSTYSADSVKGRFTISADTSKNTAYLQMSSLRAEDTAVYYCARDSRRYVLSWDYWGQGTLVTVSS VL: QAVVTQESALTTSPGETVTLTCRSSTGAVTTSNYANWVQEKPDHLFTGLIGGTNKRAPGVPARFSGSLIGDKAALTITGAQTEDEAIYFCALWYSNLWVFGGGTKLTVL	0.000461
SRP2196-A11 (antibody, V domains shown) VH: EVQLVESGGGLVQPGGSLRLSCAASGFNITGYYIHWVRQAPGKGLEWVGQISPNSGTTYDADSVKGRFTISADTSKNTAYLQMNSLRAEDTAVYYCARDSRRYVRGWDYWGQGTLVTVSS VL: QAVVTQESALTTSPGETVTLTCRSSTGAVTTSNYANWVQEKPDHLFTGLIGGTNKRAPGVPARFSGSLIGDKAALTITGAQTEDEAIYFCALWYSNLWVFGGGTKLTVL	0.000792
SRP2196-B03 (antibody, V domains shown) VH: EVQLVESGGGLAQPGGSLRLSCAASGFNITGYYIHWVRQAPGKGLEWVGYISPNSGATHYADSVKGRFTISADTSKNTAYLQMNSLRAEDTAVYYCARDSRRYVRPFDYWGQGTLVTVSS VL: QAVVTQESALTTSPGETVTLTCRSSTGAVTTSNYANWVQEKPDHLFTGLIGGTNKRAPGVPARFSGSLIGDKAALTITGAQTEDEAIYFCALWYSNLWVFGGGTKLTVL	0.000945
SRP2196-B02 (antibody, V domains shown) VH: EVQLVESGGGLVQPGGSLRLSCAASGFNITQYYIHWVRQAPGKGLEWVGYISPNSGQTYDADSVKGRFTISADTSKNTAYLQMNSLRAEDTAVYYCARDSRRYVRSWDYWGQGTLVTVSS VL: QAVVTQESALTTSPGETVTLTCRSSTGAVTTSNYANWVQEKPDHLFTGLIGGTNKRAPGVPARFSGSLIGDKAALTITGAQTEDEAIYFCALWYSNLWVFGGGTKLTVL	0.000227
SRP2196-B09 (antibody, V domains shown) VH: EVQLVESGGGLVQPEGSLRLSCAASGFNITEYYIHWVRQAPGKGLEWVGYISPNSGSTYYADSVKGRFTISADTSKNTAYLQMNSLRAEDTAVYYCARDSRRYVRSWDYWGQGTLVTVSS VL: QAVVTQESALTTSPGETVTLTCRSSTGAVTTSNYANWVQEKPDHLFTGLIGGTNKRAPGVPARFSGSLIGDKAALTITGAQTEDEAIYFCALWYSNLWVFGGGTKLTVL	0.000427
SRP2196-A08 (antibody, V domains shown) VH: EVQLVESGGGLVQPGGSLRLSCAASGFNITGYYIHWVRQAPGKGLEWVGYISPNSGSTYKADSVKGRFTISADTSRNTAYLQMNSLRAEDTAVYYCARDSRRYVRSWDYWGQGTLVTVSS VL: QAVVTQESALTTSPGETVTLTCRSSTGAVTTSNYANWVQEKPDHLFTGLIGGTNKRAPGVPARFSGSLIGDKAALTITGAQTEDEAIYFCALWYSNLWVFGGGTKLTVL	0.00078
SRP2196-B11 (antibody, V domains shown) VH: EVQLVESGGGLVQPGGSLRLSCAASGFNITGYYIHWVRQAPGRGLEWVGQISPNSGYTYYADSVKGRFTISADTSKNTAYLQMNSLRAEDTAVYYCARDSRRYIRSWDYWGQGTLVTVSS VL: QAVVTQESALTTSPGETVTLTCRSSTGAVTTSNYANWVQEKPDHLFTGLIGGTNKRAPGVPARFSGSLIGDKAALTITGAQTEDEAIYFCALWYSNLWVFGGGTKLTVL	0.000597
SRP2196-B08 (antibody, V domains shown) VH: EVQLVESGGGLVQPGGSLRLSCAASGFNITGYYIHWVRQAPGKGLEWVGQISPNSGYTYLADSVKGRFTISADTSKNTAYLQMNSLRAEDTAVYYCARDSRRYVRGWDYWGQGTLVTVSS VL: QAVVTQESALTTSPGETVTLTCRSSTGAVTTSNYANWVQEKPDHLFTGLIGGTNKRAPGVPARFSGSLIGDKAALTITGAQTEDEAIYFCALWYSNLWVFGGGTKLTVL	0.000488
SRP2196-B10 (antibody, V domains shown) VH: EVQLVESGGGLVQPGGSLRLSCAASGFNITGYYIHWVRQAPGKGLEWVGSITPLSGATSKADSVKGRFTISADTSKNTAYLQMNSLRAEDTAVYYCARDSRRYIRSWDYWGQGTLVTVSS VL: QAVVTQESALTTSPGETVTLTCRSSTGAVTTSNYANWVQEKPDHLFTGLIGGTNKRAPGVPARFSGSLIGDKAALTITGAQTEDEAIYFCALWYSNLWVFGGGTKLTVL	0.000334
